Procedure summary: Plasma and brain pharmacokinetics, 3 mg/kg i.p. single dose
Type: in vivo
Run conditions: Wistar, rat, brain, ip, 3 mg/kg, t1/2, brain, 3 mg/kg i.p.
Outcome measure: half-life (min)
Quick note: give the figure in min, leave out the unit.

## Task Recorded half-life for CCN1CC2(CCN(CCc3cc(F)ccc3F)CC2)O[C@H](C)C1=O [WLB-73502] , please?
## Result 20.4

###

Procedure summary: Plasma and brain pharmacokinetics, 3 mg/kg i.p. single dose
Format: in vivo
Run conditions: Wistar, rat, plasma, ip, 3 mg/kg, Tmax, 3 mg/kg i.p.
Outcome measure: Tmax

## Task Recorded Tmax for `CCN1CC2(CCN(CCc3cc(F)ccc3F)CC2)O[C@H](C)C1=O` , please?
## Result 4.8 min

###

Procedure summary: Plasma and brain pharmacokinetics, 3 mg/kg i.p. single dose
Format: in vivo
Run conditions: Wistar, rat, brain, ip, 3 mg/kg
Outcome measure: Cmax (ng/g)
Quick note: give the figure in ng/g, leave out the unit.

## Task Recorded Cmax for CCN1CC2(CCN(CCc3cc(F)ccc3F)CC2)O[C@H](C)C1=O [WLB-73502] , please?
## Result 982

###

Procedure summary: Plasma and brain pharmacokinetics, 3 mg/kg i.p. single dose
Format: in vivo
Run conditions: Wistar, rat, plasma, ip, 3 mg/kg
Outcome measure: AUC(0-inf) (ng·h/mL)
Quick note: give the figure in ng·h/mL, leave out the unit.

## Task Recorded AUC(0-inf) for CCN1CC2(CCN(CCc3cc(F)ccc3F)CC2)O[C@H](C)C1=O [WLB-73502] , please?
## Result 136
